experiment: gradient 5% acetonitrile 3 min, to 50% in 2 min, to 85% in 15 min, held 3 min, 100 µL/min; conditions: column: Zorbax Extend-C18 2.1 x 50 mm; eluents: water / acetonitrile, 0.1% formic acid
Exercise: for every item that follows, state its recorded RP-LC retention time.
One number for each entry, in s.

compound	units text	number
CCOC(=O)c1c(C)[nH]c(CCC(=O)NCc2ccc(C)o2)c1C	s	816
COc1ccccc1C1(CNS(=O)(=O)c2ccc(NC(=O)C(C)C)cc2)CCOCC1	s	806
Cc1ccc2c(Nc3ccc(F)c(Cl)c3)c(C(=O)N3CCOCC3)cnc2n1	s	601
CSc1ccc(-c2nc3ccc(C)cn3c2NC2CCCCC2)cc1	s	878
COCc1nn(C)c2c1CN(S(=O)(=O)c1cccc(C#N)c1)CC2	s	676

// each compound listed below needs its RP-LC retention time
1. CCOc1cc(C(=O)N2CCCC(C)(C(=O)NCc3ccc(F)cc3)C2)cc(OCC)c1OCC (stereo not given)
2. CCOC(=O)C1CCN(C(=O)C2CCCN(c3cnc4nc(C)c(C)nc4c3)C2)CC1 (stereo not given)
3. CCn1cc(-c2ccccc2)cc1C(=O)NCC(C)C

[978, 689, 1070]

// each compound listed below needs its RP-LC retention time
1. O=c1c2sccc2n(Cc2nc(-c3ccc(F)c(Cl)c3)no2)c(=O)n1-c1cccc(F)c1
2. CCN1CCN(CCNC(=O)C(C)C2CCN(C(=O)c3cc4cc(Cl)ccc4[nH]3)CC2)CC1 (stereo not given)

1070
630

// each compound listed below needs its RP-LC retention time
1. CCN(C(=O)C1CCCN1S(=O)(=O)c1cc2c(cc1C)NC(=O)C(C)O2)c1cccc(C)c1 (stereo not given)
2. Cn1c(=O)n([C@H]2CCN(C(=O)C3(c4ccccc4)CC3)C2)c2ncccc21
3. CC1=C(c2ccc(C)cc2)S(=O)(=O)N=C1N1CCCN(C(=O)c2ccc(C#N)cc2)CC1
4. O=C(NCc1cc(F)cc(F)c1)c1ccnc(N2CCNC(c3ccccc3)C2)c1 (stereo not given)

1: 868; 2: 733; 3: 835; 4: 661

// each compound listed below needs its RP-LC retention time
1. O=C(NCCc1csc(C2CCCN(C(=O)C3CCCCC3)C2)n1)C1CC1 (stereo not given)
2. COc1ccccc1NC(=O)Cn1nc2n(c1=O)CCCCC2
3. O=C1CN(S(=O)(=O)c2ccc(Cl)s2)CC2(CCCCC2)N1Cc1ccccc1
4. CCNC(=O)NCCc1cn(CCOC)c2ncccc12
5. O=C(NCC(O)c1ccc(C(F)(F)F)cc1)c1ccco1 (stereo not given)
6. CC(C)OCCCNC(=O)CCCn1c2ccccc2c2cnn(C)c(=O)c21

[760, 709, 1180, 579, 711, 773]

* * *

experiment: gradient 5% acetonitrile 3 min, to 50% in 2 min, to 85% in 15 min, held 3 min, 100 µL/min; conditions: column: Zorbax Extend-C18 2.1 x 50 mm; eluents: water / acetonitrile, 0.1% formic acid
Assign class by RP-LC retention time: not lower than 800 s means true; lower than 800 s means false.

compound	cat
COCc1cc(=O)n(CC(=O)Nc2ccccc2)c(N2CCOCC2)n1	false
CCc1ccc(NC(=O)N2CCCC2c2cc(C)on2)cc1 (stereo not given)	true
Cc1nc(-c2ccc(-c3noc(CNC(=O)c4ccco4)n3)cc2)cs1	true
CCn1nc(C)n2cc(S(=O)(=O)NCc3cc(F)cc(F)c3)cc2c1=O	true

Okay, now this compound:
Threshold query (RP-LC retention time >= 800 s) on "Brc1ccc(-c2ccc(CNCc3cccnc3)o2)c(Br)c1" false
